Could you please report measured Percent Effect for the items listed next?
tested system: Proteasome subunit beta (Trypanosoma cruzi) (UniProt O96673)
Sequence (O96673 as listed by the source): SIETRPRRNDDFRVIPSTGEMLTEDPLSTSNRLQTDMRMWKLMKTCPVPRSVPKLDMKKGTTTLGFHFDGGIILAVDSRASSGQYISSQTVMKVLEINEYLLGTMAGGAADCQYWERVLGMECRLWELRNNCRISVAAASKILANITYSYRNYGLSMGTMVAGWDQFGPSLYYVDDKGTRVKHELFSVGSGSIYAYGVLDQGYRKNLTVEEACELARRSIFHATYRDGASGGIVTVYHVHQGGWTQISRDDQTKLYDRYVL
procedure text: Trypanosoma cruzi proteasome chymotrypsin-like activity (TcProtChymo) assay. Note: in the data most compounds retested in dose-response had high values.
Type: functional
Parameters: scale not given: direction of the effect not stated beside the values
applied conditions: 9.37 µM
# number only, unit % dropped from output

Please look up its Percent Effect: COc1ccccc1N1CCC(CNCc2cccc(OC)c2OC)C1 (configuration not stated)
7.75

Please look up its Percent Effect: `O=C(c1ccccn1)N1CCn2cnc(COCC3CC3)c2C1`
9.57

Please look up its Percent Effect: Cn1cnnc1C1CCCN(C(=O)c2cc(Cl)c3c(c2)OCO3)C1 (configuration not stated)
8.57

Please look up its Percent Effect: Cc1nnc2n1CCN(C(C(=O)NC1CC1)c1ccccc1)C2 (configuration not stated)
5.72

Please look up its Percent Effect: `CCOc1ccnc(N2CCN(C(=O)C(C)(C)C#N)CC2)n1`
4.99

Please look up its Percent Effect: `COCCc1noc(CN(C)C(=O)c2cccc(N3CCCC3=O)c2)n1`
-0.246

Please look up its Percent Effect: `O=C(Cn1cc(-c2ccccc2)ncc1=O)Nc1nnc[nH]1`
20.4

Please look up its Percent Effect: `CCOC1CCN(C(=O)c2cnn(-c3ccccc3Cl)c2)CC1`
2.34

Please look up its Percent Effect: c1cnn(CC2CCCN2Cc2nc(-c3ccoc3)no2)c1 (configuration not stated)
10.3

Please look up its Percent Effect: Cc1nccn1-c1cc(CNC(=O)CCC2CCCO2)ccn1 (configuration not stated)
18.9

Please look up its Percent Effect: CC(NC(=O)N1CCN(c2ccccc2)CC1)c1nncn1C (configuration not stated)
11.4

Please look up its Percent Effect: `COC(=O)c1ccc(S(=O)(=O)NCc2cccnc2N(C)C)cc1`
4.67

Please look up its Percent Effect: `CC(C)c1ccc(-c2nnn(CCNS(C)(=O)=O)n2)cc1`
4.71

Please look up its Percent Effect: `O=C(O)c1csc(S(=O)(=O)N2CCCc3ccc(F)cc32)c1`
6.1

Please look up its Percent Effect: `Cc1ccc2cc(C(=O)NCCn3nc4ccccn4c3=O)[nH]c2c1`
16.3

Please look up its Percent Effect: NC(=O)c1cccc(CC2CCN(C(=O)CO)C2)c1 (configuration not stated)
15.4

Please look up its Percent Effect: O=C(NC1CC(=O)N(Cc2cccc(F)c2)C1)c1ccncc1 (configuration not stated)
10.7

Please look up its Percent Effect: Cc1ccc(CN2CCCC3(COCCN(Cc4c[nH]nn4)C3)C2)o1 (configuration not stated)
0.855

Please look up its Percent Effect: `Cc1ccoc1C(=O)NC1CCN(Cc2cccc3c2OCCO3)CC1`
13.9

Please look up its Percent Effect: `CC(C)N1CCn2c(nc3cc(C(N)=O)ccc32)C1`
8.87

Please look up its Percent Effect: `O=C(c1ccc(O)cc1)N1CCN(C(=O)c2ccc3c(c2)COC3)CC1`
4.01

Please look up its Percent Effect: `c1cncc(-c2ccc3c(c2)C2(CC3)CCN(c3nncs3)CC2)c1`
14.5

Please look up its Percent Effect: `Cc1nc2c(c(C)c1CC(=O)Nc1cccc(C#N)c1)c(=O)[nH]n2C`
10.8

Please look up its Percent Effect: CN1CCCC1c1cccc(Cc2ccccc2F)n1 (configuration not stated)
-1.87

Please look up its Percent Effect: CS(=O)(=O)c1ccc(CNC(=O)N2CCC(C(N)=O)C2)cc1 (configuration not stated)
14.2

Please look up its Percent Effect: c1ccc(OCCN2CCCC(c3noc(C4CC4)n3)C2)cc1 (configuration not stated)
10.1

Please look up its Percent Effect: `Cc1cccc(CN2C(=O)CO[C@@H]3CN(CCO)C[C@H]32)c1`
12.1

Please look up its Percent Effect: COc1ccc(OCC(=O)NC(C)c2ccccc2)c(C(=O)O)c1 (configuration not stated)
6.78

Please look up its Percent Effect: `O=C(COCc1ccccc1)N1CCC(OCc2cccnc2)CC1`
9.42

Please look up its Percent Effect: `Cc1ccc(-c2nc(CN3CCc4nn(C)c(=O)cc4C3)co2)cc1`
17.1

Please look up its Percent Effect: `Cc1ccccc1CN1CCN(Cc2nccn2C)CC1`
0.36

Please look up its Percent Effect: `Fc1ccccc1CN1C[C@@H](OCc2ccncc2)[C@H]2OCCC[C@H]21`
5.49

Please look up its Percent Effect: `COCCn1ccc(NC(=O)Nc2ccc(C(N)=O)c(F)c2)n1`
13.3

Please look up its Percent Effect: `CC(C)c1cc(NC(=O)c2ccc(C(=O)NC(C)(C)C)cc2)[nH]n1`
0.169

Please look up its Percent Effect: `CCn1ccnc1CN1CCC(CCC(=O)Nc2ccccc2Cl)CC1`
-1.37

Please look up its Percent Effect: `CC(C)Cc1noc(CN2CCN(C(=O)c3ccco3)CC2)n1`
8.99

Please look up its Percent Effect: `Cn1cnc(-c2cc(C(=O)N3CCOCC3)c3ccccn23)c1`
26.6

Please look up its Percent Effect: `CC(C)CNC(=O)c1c(-n2cnnn2)sc2c1CCC2`
10.4

Please look up its Percent Effect: `COc1cc(S(=O)(=O)N2CCCc3ccccc32)cc(C(=O)O)c1OC`
7.38

Please look up its Percent Effect: `O=C(NCCCN1CCc2ccccc2C1)c1cccnc1O`
2.8

Please look up its Percent Effect: `Cc1cc(C)n(CC(=O)N(C)Cc2csc(-c3cccs3)n2)c(=O)n1`
19.5

Please look up its Percent Effect: `O=C(c1ccco1)N1CCC2(CC1)C(=O)NCCN2CC1CC1`
15.1

Please look up its Percent Effect: `Cc1noc(C)c1C(=O)N1C[C@H]2CCC[C@@]2(COc2ccccn2)C1`
12.3

Please look up its Percent Effect: `O=C(O)[C@@H]1CN(C(=O)c2cc(C3CC3)n[nH]2)C[C@H]1c1cccc(F)c1`
14.5

Please look up its Percent Effect: COc1cn(-c2ccccc2)nc1C(=O)NCCCN1CCCC(C)C1 (configuration not stated)
-2.2

Please look up its Percent Effect: `Cc1ccc(NC(=O)c2cc(S(=O)(=O)N3CCCCC3)c[nH]2)cc1F`
6.61

Please look up its Percent Effect: CN(C)c1cc(C(=O)N2CCCC(n3cccn3)C2)ccn1 (configuration not stated)
2.47

---

Could you please report measured Percent Effect for the items listed next?
tested system: Ubiquitin-activating enzyme e1, putative (Leishmania donovani (strain BPK282A1))
procedure text: Leishmania donovani Ubiquitin Activating Enzyme (LdE1)
Type: functional
Parameters: scale not given: direction of the effect not stated beside the values
applied conditions: 30 µM
Measured potencies and affinities stand elsewhere.
# number only, unit % dropped from output

Please look up its Percent Effect: `Nc1nc(C2CCN(C(=O)c3cncs3)CC2)cs1`
12.2

Please look up its Percent Effect: `Cc1nc(C(=O)N2CCc3c(nc(-c4ccncc4)[nH]c3=O)C2)cs1`
0

Please look up its Percent Effect: Fc1ccc(CN2CCCC2Cn2cccn2)c2ncccc12 (stereo not given)
-16.2

Please look up its Percent Effect: `CS(=O)(=O)NCCNC(=O)C1(c2cccc(Cl)c2)CC1`
9.72

Please look up its Percent Effect: `COCc1nc(C(=O)NS(=O)(=O)c2ccc(C)cc2C)cs1`
0

Please look up its Percent Effect: `O=C(C1CC1)N1CCN(Cc2coc(-c3ccc(Cl)cc3)n2)CC1`
-7.79

Please look up its Percent Effect: `COCc1ccc(CN2CCC(O)(Cn3ccc4ncccc43)CC2)o1`
2.67

Please look up its Percent Effect: CCn1cc(NC(=O)NCC(c2cccc(F)c2)N(C)C)cn1 (stereo not given)
13.2

Please look up its Percent Effect: OCC1CCCCN1c1ccc(-c2nc(-c3ccccc3F)no2)cn1 (stereo not given)
-5.41

Please look up its Percent Effect: Cn1ccnc1C(NCc1csc(Br)c1)c1ccccc1 (stereo not given)
21.6

Please look up its Percent Effect: COc1ccc(C2Nc3cc(Cl)ccc3C3=NCCN32)cc1OC (stereo not given)
2.67

Please look up its Percent Effect: `Cc1noc(C)c1CNC(=O)N1CCN(Cc2cscn2)CC1`
15.8

Please look up its Percent Effect: `O=C(c1cscn1)N1C[C@@H]2[C@@H](C1)OCC(=O)N2CC1CCCC1`
-54.5

Please look up its Percent Effect: `CCN(CC)C(=O)c1ccn(COc2ccccc2)n1`
-4

Please look up its Percent Effect: `CCN(C)c1ncnc2c1CCN(Cc1ccc(OC)cc1)CC2`
6.49

Please look up its Percent Effect: Cc1nc(C)n(CC2CCCN(CC(=O)Nc3nncs3)C2)n1 (stereo not given)
-2.63

Please look up its Percent Effect: COc1ncccc1C(=O)N1CCn2c(COCC3CC3)cnc2C1C (stereo not given)
3.9

Please look up its Percent Effect: `Cc1cc(C)cc(-c2cccc(CC3(C(=O)O)CCOCC3)c2)c1`
4.05

Please look up its Percent Effect: `COc1ccccc1OC1CCN(Cc2cnc(N(C)C)nc2)CC1`
0

Please look up its Percent Effect: `Cc1cccc(CNCc2c(C)nn(C)c2N2CCOCC2)n1`
8.22

Please look up its Percent Effect: `Cc1ccsc1CN(Cc1ccccn1)CC(C)C`
1.39

Please look up its Percent Effect: CCc1nc2n(n1)CC(Nc1cc(C)nc3ncnn13)CC2 (stereo not given)
8.22

Please look up its Percent Effect: `N#CC1(C(=O)N2CCN(Cc3cscn3)CC2)CCCC1`
10.1

Please look up its Percent Effect: `CCc1ncncc1C(=O)N1CCCN(Cc2ccc(C)cc2)CC1`
2.63

Please look up its Percent Effect: `N#Cc1ccccc1OCCN1CCn2c(nnc2C2CC2)C1`
2.67
